Values were extracted from PubChem BioAssay AID1963851.

Tested on: 188146-221-R-J1-PDC complex spheroid viability
Test: Anticancer human tumor 188146-221-R-J1-PDC patient-derived colon adenocarcinoma cell line growth inhibition [POLQ]
Settings: second compound 1 µM; first compound 10 µM; hits give low values
viability, T/C strictly less than 40% = Satisfied. Otherwise Not satisfied.

CC1COCCN1c1cc(-c2ccnn2C)c2ccnc(-c3ccn[nH]3)c2n1 (stereo unspecified) + COC1C(OC(N)=O)C(O)C(Oc2ccc3c(O)c(NC(=O)c4ccc(O)c(CC=C(C)C)c4)c(=O)oc3c2C)OC1(C)C = Satisfied
CNCc1ccc(-c2[nH]c3cc(F)cc4c3c2CCNC4=O)cc1 + COC1C(OC(N)=O)C(O)C(Oc2ccc3c(O)c(NC(=O)c4ccc(O)c(CC=C(C)C)c4)c(=O)oc3c2C)OC1(C)C = Not satisfied
CC1COCCN1c1cc(C2(O)CC3CCC(C2)O3)c2cnn(-c3ccn[nH]3)c2n1 (stereo unspecified) + Nc1ccc(C#CCN(C(=O)Cc2ncc(C(F)(F)F)cc2C(F)(F)F)c2ccc(F)cc2)nn1 = Satisfied
CCc1cc2c(N3CCc4c(cc(Cn5ccnc5)cc4-c4cn(C)nc4C(F)(F)F)C3=O)ccnc2c(OC)n1 + Cc1cccc(N(C)C(=O)C2C(O)CCN2c2nc(C)cc(C(F)(F)F)c2C#N)c1 = Not satisfied
O=c1[nH]cc(F)c(=O)[nH]1 + Nc1ccc(C#CCN(C(=O)Cc2ncc(C(F)(F)F)cc2C(F)(F)F)c2ccc(F)cc2)nn1 = Not satisfied

Turning now to a further record.
In the record for CNCc1ccc(-c2[nH]c3cc(F)cc4c3c2CCNC4=O)cc1 + Cc1cccc(N(C)C(=O)C2C(O)CCN2c2nc(C)cc(C(F)(F)F)c2C#N)c1 , is viability, T/C less than 40%?
Not satisfied

* * *

System: 188146-221-R-J1-PDC complex spheroid viability
Assay: Anticancer human tumor 188146-221-R-J1-PDC cell line growth inhibition [POLQ];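 note: spheroids exposed to compounds for seven days; 100% = DMSO vehicle control viability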
Conditions: second compound 10 µM; first compound 0.316 µM; hits give low values
Protocol: Multicellular complex tumor spheroid response to Polymerase (POL) inhibitors (novobiocin, ART-558, RP6685) in combination with a variety of drugs and investigational agents in selected tumor cell lines The POL inhibitors (novobiocin, ART-558, and RP6685) were evaluated both individually and in combination with standard of care and investigational anticancer small molecules within a complex spheroid model of solid tumors. . […]
measurement-label: viability, T/C (%)
// return numeric value only (unit: %, not printed)

Use the examples below as a reference point.
COc1cc2cc(C(=O)CCC(=O)O)sc2cc1OC + Nc1ccc(C#CCN(C(=O)Cc2ncc(C(F)(F)F)cc2C(F)(F)F)c2ccc(F)cc2)nn1 = 98.5
CC1COCCN1c1cc(C2(S(C)(=N)=O)CC2)nc(-c2ccnc3[nH]ccc23)n1 (stereo not given) + Nc1ccc(C#CCN(C(=O)Cc2ncc(C(F)(F)F)cc2C(F)(F)F)c2ccc(F)cc2)nn1 = 101
C=CCn1c(=O)c2cnc(Nc3ccc(N4CCN(C)CC4)cc3)nc2n1-c1cccc(C(C)(C)O)n1 + COC1C(OC(N)=O)C(O)C(Oc2ccc3c(O)c(NC(=O)c4ccc(O)c(CC=C(C)C)c4)c(=O)oc3c2C)OC1(C)C = 98.1
O=C(Nc1ccc(O)c(NS(=O)(=O)c2ccc(F)cc2)c1)c1ccc(-c2ccccc2)cc1 + Nc1ccc(C#CCN(C(=O)Cc2ncc(C(F)(F)F)cc2C(F)(F)F)c2ccc(F)cc2)nn1 = 110

get_value(item= O=C(c1cc(Cc2n[nH]c(=O)c3ccccc23)ccc1F)N1CCN(C(=O)C2CC2)CC1 + Cc1cccc(N(C)C(=O)C2C(O)CCN2c2nc(C)cc(C(F)(F)F)c2C#N)c1 , readout=viability, T/C) returns 96.3

// viability, T/C value for C=CC(=O)N1CCN(c2nc(=O)n(-c3c(C)ccnc3C(C)C)c3nc(-c4c(O)cccc4F)c(F)cc23)C(C)C1 (stereo not given) + COC1C(OC(N)=O)C(O)C(Oc2ccc3c(O)c(NC(=O)c4ccc(O)c(CC=C(C)C)c4)c(=O)oc3c2C)OC1(C)C : 108

Given item COc1cccc2c1C(=O)c1c(O)c3c(c(O)c1C2=O)CC(O)(C(=O)CO)CC3OC1CC(N)C(O)C(C)O1 (stereo not given) + Cc1cccc(N(C)C(=O)C2C(O)CCN2c2nc(C)cc(C(F)(F)F)c2C#N)c1 , the value recorded as its viability, T/C is 26.4

Notebook: COc1cccc2c1C(=O)c1c(O)c3c(c(O)c1C2=O)CC(O)(C(=O)CO)CC3OC1CC(N)C(O)C(C)O1 (stereo not given) + Nc1ccc(C#CCN(C(=O)Cc2ncc(C(F)(F)F)cc2C(F)(F)F)c2ccc(F)cc2)nn1 , viability, T/C read as 25.3

For reference, reported viability, T/C for C=CCn1c(=O)c2cnc(Nc3ccc(N4CCN(C)CC4)cc3)nc2n1-c1cccc(C(C)(C)O)n1 + Nc1ccc(C#CCN(C(=O)Cc2ncc(C(F)(F)F)cc2C(F)(F)F)c2ccc(F)cc2)nn1 stands at 98.4

Looking up CCc1cc2c(N3CCc4c(cc(Cn5ccnc5)cc4-c4cn(C)nc4C(F)(F)F)C3=O)cc(C)nc2c(OC)n1 + Nc1ccc(C#CCN(C(=O)Cc2ncc(C(F)(F)F)cc2C(F)(F)F)c2ccc(F)cc2)nn1 , I found its viability, T/C recorded as 99

* * *

System: 188146-221-R-J1-PDC complex spheroid viability
Experiment: Anticancer human tumor 188146-221-R-J1-PDC cell line growth inhibition [POLQ];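 note: spheroids exposed to compounds for seven days; 100% = DMSO vehicle control viability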
Conditions: second compound 0.0316 µM; first compound 3.16 µM; hits give low values
# viability, T/C values compiled below
Give the value, in units of %, as a plain number.

Answered examples (2):
COc1cc2cc(C(=O)CCC(=O)O)sc2cc1OC + Cc1cccc(N(C)C(=O)C2C(O)CCN2c2nc(C)cc(C(F)(F)F)c2C#N)c1 = 103
CCc1cc2c(N3CCc4c(cc(Cn5ccnc5)cc4-c4cn(C)nc4C(F)(F)F)C3=O)cc(C)nc2c(OC)n1 + COC1C(OC(N)=O)C(O)C(Oc2ccc3c(O)c(NC(=O)c4ccc(O)c(CC=C(C)C)c4)c(=O)oc3c2C)OC1(C)C = 66.3

Lab book: viability, T/C of COc1ccc([C@@H](O)c2cc(-c3ncnc4cc(N5CCOCC5)ccc34)c(F)cc2Cl)nn1 + COC1C(OC(N)=O)C(O)C(Oc2ccc3c(O)c(NC(=O)c4ccc(O)c(CC=C(C)C)c4)c(=O)oc3c2C)OC1(C)C noted as 61.2

compound CC1COCCN1c1cc(-c2ccnn2C)c2ccnc(-c3ccn[nH]3)c2n1 (stereo not given) + COC1C(OC(N)=O)C(O)C(Oc2ccc3c(O)c(NC(=O)c4ccc(O)c(CC=C(C)C)c4)c(=O)oc3c2C)OC1(C)C , viability, T/C observed: 16.3

Noted for Nc1ccn(C2OC(CO)C(O)C2(F)F)c(=O)n1 (stereo not given) + Cc1cccc(N(C)C(=O)C2C(O)CCN2c2nc(C)cc(C(F)(F)F)c2C#N)c1 : its viability, T/C reads 17.1

* * *

This section presents molecules with their documented viability, T/C values.
Test system: 188146-221-R-J1-PDC complex spheroid viability
Assay: Anticancer human tumor 188146-221-R-J1-PDC cell line growth inhibition [POLQ];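 note: spheroids exposed to compounds for seven days; 100% = DMSO vehicle control viability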
Conditions: second compound 0.1 µM; first compound 0.0316 µM; hits give low values
Express the result in % but write the number alone.

Worked examples, 3 molecules total:
O=C(Nc1ccc(O)c(NS(=O)(=O)c2ccc(F)cc2)c1)c1ccc(-c2ccccc2)cc1 + Cc1cccc(N(C)C(=O)C2C(O)CCN2c2nc(C)cc(C(F)(F)F)c2C#N)c1 = 103
COc1cccc(OCCCN)c1-c1cc(Nc2cnc(C#N)cn2)n[nH]1 + Cc1cccc(N(C)C(=O)C2C(O)CCN2c2nc(C)cc(C(F)(F)F)c2C#N)c1 = 75.8
COc1cccc2c1C(=O)c1c(O)c3c(c(O)c1C2=O)CC(O)(C(=O)CO)CC3OC1CC(N)C(O)C(C)O1 (stereo not given) + Cc1cccc(N(C)C(=O)C2C(O)CCN2c2nc(C)cc(C(F)(F)F)c2C#N)c1 = 75.1

Value (viability, T/C, 188146-221-R-J1-PDC complex spheroid viability) for record Nc1ccn(C2OC(CO)C(O)C2(F)F)c(=O)n1 (stereo not given) + COC1C(OC(N)=O)C(O)C(Oc2ccc3c(O)c(NC(=O)c4ccc(O)c(CC=C(C)C)c4)c(=O)oc3c2C)OC1(C)C = 50.4

Known value: 188146-221-R-J1-PDC complex spheroid viability viability, T/C of the molecule COc1cc(C2c3cc4c(cc3C(OC3OC5COC(C)OC5C(O)C3O)C3COC(=O)C23)OCO4)cc(OC)c1O (stereo not given) + Nc1ccc(C#CCN(C(=O)Cc2ncc(C(F)(F)F)cc2C(F)(F)F)c2ccc(F)cc2)nn1 equals 89.5
